Hey, just so you know, these numbers are from ChEMBL document CHEMBL4483862.

System: Plasmodium berghei
experimental_protocol: Luciferase/luciferin-expressing antifolate-resistant parasites were used to infect a culture of HepG2 cells that were pre-incubated with compounds. Infected hepatocytes emit light due to the luciferase reaction. Assay results are presented as the percent inhibition of light emission compared to control. […]
Type: functional
condition_details: sporozoite, read-out: LUCIFERASE INFECTION ASSAY - IC90
Each entry below carries its recorded IC90.
Provide the reading as a plain figure in µM.

smiles_input: CC(C)Sc1nnc(CSc2nc3ccccc3s2)n1C
unit_spec: µM
IC90: 3.94

smiles_input: FC(F)(F)Oc1ccc(Nc2n[nH]c(=S)s2)cc1
unit_spec: µM
IC90: 5

smiles_input: COc1cc(OC)cc(-c2cnc3cnc(-c4cccc(C)c4C)cn23)c1
unit_spec: µM
IC90: 8.63

Task: Which IC90 is reported for this molecule? `Cc1cc(C)n(-c2ccc3c(Cl)cc(Cl)c(O)c3n2)n1`
Result: 0.393

Task: Which IC90 is reported for this molecule? `O=C(Nc1ccc(-n2ccc(C(F)(F)F)n2)cc1)c1cccs1`
Result: 3.61

Task: Which IC90 is reported for this molecule? `Cc1cc(NC(=O)c2cc(-c3ccc(Br)cc3)nc3ccccc23)n(-c2ccc([N+](=O)[O-])cc2)n1`
Result: 1.17

Task: Which IC90 is reported for this molecule? `CCOC(=O)c1cnn(-c2ccc(NC(=O)c3sc4nc5n(c(=O)c4c3C)CCC5)cc2)c1C`
Result: 2.97

Task: Which IC90 is reported for this molecule? `CC(=O)O/N=C1/CCn2c1c(C)c1ccccc12`
Result: 5.74
